Listed here: items and their measured inhibition.
TARGET_ENTITY: Serine/threonine-protein kinase pim-2 (Homo sapiens) (UniProt Q9P1W9);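 note: each value is a mean of the inhibition measurements against the kinase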
Sequence (Q9P1W9 whole entry, looked up): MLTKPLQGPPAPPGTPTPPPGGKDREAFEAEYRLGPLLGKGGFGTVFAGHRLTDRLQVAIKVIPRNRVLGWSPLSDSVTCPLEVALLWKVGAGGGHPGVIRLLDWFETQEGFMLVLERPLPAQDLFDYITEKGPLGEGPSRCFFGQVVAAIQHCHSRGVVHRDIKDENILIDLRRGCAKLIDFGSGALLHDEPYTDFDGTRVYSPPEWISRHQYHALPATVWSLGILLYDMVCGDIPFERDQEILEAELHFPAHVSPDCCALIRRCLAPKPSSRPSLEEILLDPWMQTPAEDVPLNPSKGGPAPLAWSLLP
CONDITION_INFO: at 1 µM
Field format: number, assumed %, no unit text.

>>> reading("COc1cc(Nc2nccc(Nc3ccc4c(C)n[nH]c4c3)n2)cc(OC)c1OC")
1.57

Moving on to another compound below.
Ask: Provide the reported inhibition (system: Serine/threonine-protein kinase pim-2 (Homo sapiens) (UniProt Q9P1W9)) for "CN(C)CCOc1ccc(-c2nc(-c3ccncc3)c(-c3ccc4c(c3)CC/C4=N\O)[nH]2)cc1"
Result: 0.05

====

TARGET_ENTITY: Protein kinase C beta type (Homo sapiens);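 note: measured against the PKC-beta2 splice variant, with values reported as mean percent inhibition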
CONDITION_INFO: at 0.1 µM
Description: GSK_PKIS: PKC-beta2 (splice variant) mean inhibition at 0.1 uM [Nanosyn]
Listed here: items and their measured inhibition.
Field format: number, assumed %, no unit text.

// solved cases for inhibition follow
>>> reading("CS(=O)(=O)CCNCc1coc(-c2ccc3ncnc(Nc4ccc(OCc5ccccc5)cc4)c3c2)c1")
-0.17
>>> reading("O=C(Nc1n[nH]c2cc(-c3ccc(F)cc3)ccc12)C1CC1")
2.1
>>> reading("N#Cc1c(NC(=O)CN2CCOCC2)sc2c1CCCC2")
1.49
>>> reading("COc1cc(/C=N/Nc2ncnc3[nH]ncc23)ccc1O")
0.58
>>> reading("COC(=O)Nc1nc2ccc(S(=O)(=O)c3ccc(NC(=O)Nc4cc(C(F)(F)F)ccc4F)cc3)cc2[nH]1")
0.33

Ask: Determine from records and report inhibition for "COc1cc(N2CCN(C(C)C)CC2)ccc1Nc1nc(Nc2ccc(F)cc2C(N)=O)c2cc[nH]c2n1"
Result: 1.59

Ask: Determine from records and report inhibition for "Cc1ccc(O)cc1Nc1ccnc2cc(-c3ccccn3)ccc12"
Result: 1.13

Ask: Determine from records and report inhibition for "NC(=O)c1sc(-n2cnc3ccc(C(F)(F)F)cc32)cc1OCc1ccccc1Br"
Result: 1.28

Ask: Determine from records and report inhibition for "CCn1cc(-c2ccnc3[nH]ccc23)c(-c2cccc(NC(=O)Nc3ccc(OCc4ccccc4)cc3)c2)n1"
Result: 0.47

Ask: Determine from records and report inhibition for "COc1ccc(-c2cc(-c3c[nH]nc3-c3ccccn3)ccn2)cc1"
Result: 0.62

====

Listed here: items and their measured inhibition.
TARGET_ENTITY: Angiopoietin-1 receptor (Homo sapiens) (UniProt Q02763);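 note: reported value is the mean TIE2 inhibition from the GSK PKIS dataset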
Sequence (Q02763 whole entry): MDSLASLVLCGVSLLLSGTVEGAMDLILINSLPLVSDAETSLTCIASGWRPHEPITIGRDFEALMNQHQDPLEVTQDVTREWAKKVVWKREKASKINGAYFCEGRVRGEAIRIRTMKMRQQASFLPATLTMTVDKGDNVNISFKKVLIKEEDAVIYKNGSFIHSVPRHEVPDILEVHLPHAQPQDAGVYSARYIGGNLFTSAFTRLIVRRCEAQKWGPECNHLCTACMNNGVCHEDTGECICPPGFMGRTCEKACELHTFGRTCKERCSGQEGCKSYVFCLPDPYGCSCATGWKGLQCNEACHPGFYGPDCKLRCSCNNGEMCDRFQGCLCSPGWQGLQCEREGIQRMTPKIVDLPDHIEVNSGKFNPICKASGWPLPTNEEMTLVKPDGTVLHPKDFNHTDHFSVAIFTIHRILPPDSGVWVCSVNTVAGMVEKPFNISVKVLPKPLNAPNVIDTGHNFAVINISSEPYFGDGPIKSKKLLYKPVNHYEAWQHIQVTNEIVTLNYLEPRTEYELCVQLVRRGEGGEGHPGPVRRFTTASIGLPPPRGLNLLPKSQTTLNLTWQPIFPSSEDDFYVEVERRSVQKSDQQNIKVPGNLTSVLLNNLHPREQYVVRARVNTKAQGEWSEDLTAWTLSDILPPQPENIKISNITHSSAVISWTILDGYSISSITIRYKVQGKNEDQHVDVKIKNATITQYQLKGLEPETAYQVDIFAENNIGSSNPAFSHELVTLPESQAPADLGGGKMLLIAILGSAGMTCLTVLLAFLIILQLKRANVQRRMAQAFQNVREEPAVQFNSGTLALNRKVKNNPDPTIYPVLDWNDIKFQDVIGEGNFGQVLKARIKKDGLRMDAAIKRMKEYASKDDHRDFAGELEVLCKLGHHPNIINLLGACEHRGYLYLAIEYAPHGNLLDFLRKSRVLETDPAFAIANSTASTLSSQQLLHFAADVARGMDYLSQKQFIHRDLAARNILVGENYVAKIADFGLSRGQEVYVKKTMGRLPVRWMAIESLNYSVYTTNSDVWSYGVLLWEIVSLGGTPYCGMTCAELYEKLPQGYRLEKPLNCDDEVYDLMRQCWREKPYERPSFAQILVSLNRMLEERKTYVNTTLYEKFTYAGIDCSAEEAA
CONDITION_INFO: at 1 µM
Field format: number, assumed %, no unit text.

// solved cases for inhibition follow
>>> reading("COc1ccc(-c2cc3c(N)ncnc3o2)cc1")
2.73
>>> reading("Fc1ccc(-c2cc(-c3c[nH]nc3-c3ccccn3)ccn2)cc1")
2.49
>>> reading("CC(=O)Nc1cccc(C#Cc2cncnc2Nc2ccc(OCc3cccc(F)c3)c(Cl)c2)c1")
7.33

Ask: Determine from records and report inhibition for "COc1ccc(-c2cc(-c3c[nH]nc3-c3ccccn3)ccn2)cc1"
Result: 2.66

Ask: Determine from records and report inhibition for "COc1ccc(CNC(=O)c2ccc(-c3cc(-c4nnc(C)o4)ccc3C)cc2)cc1"
Result: 8.26

Ask: Determine from records and report inhibition for "Fc1ccc(-c2nn3ncccc3c2-c2ccnc(Nc3ccc4c(c3)OCCO4)n2)cc1"
Result: 23.4

Ask: Determine from records and report inhibition for "Nc1ncc(-c2cccc(S(N)(=O)=O)c2)c2scc(-c3ccc(F)c(Cl)c3)c12"
Result: 11.1

Ask: Determine from records and report inhibition for "COc1ccc2[nH]c3c4[nH]c5ccc(OC)cc5c4c4c(c3c2c1)C(=O)NC4=O"
Result: 5

====

TARGET_ENTITY: Serine/threonine-protein kinase Nek6 (Homo sapiens);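 note: values are the mean percent inhibition of NEK6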
CONDITION_INFO: at 0.1 µM
ASSAY_ENDPOINT: inhibition (%)
Field format: number, assumed %, no unit text.

>>> reading("[O-][S+]1CCN(Cc2ccc(-c3ccc4ncnc(Nc5ccc(OCc6cccc(F)c6)c(Cl)c5)c4c3)o2)CC1")
12.5
>>> reading("CN1CCC(n2cnc(-c3ccc(F)cc3)c2-c2ccnc(N)n2)CC1")
2.5
>>> reading("COC(=O)c1sc(-n2cnc3cc(OC)c(OC)cc32)cc1OCc1ccccc1C(F)(F)F")
-0.01

Ask: Determine from records and report inhibition for "Fc1ccc(-c2cc(-c3c[nH]nc3-c3ccccn3)ccn2)cc1"
Result: 4.06

Ask: Determine from records and report inhibition for "COc1ccc(-c2cc3c(N)ncnc3o2)cc1"
Result: -0.18

Ask: Determine from records and report inhibition for "CNC(=O)c1cncc(/C=C/c2ccccc2Cl)c1"
Result: 1.4

Ask: Determine from records and report inhibition for "c1ccc(COc2ccc(Nc3ncnc4ccc(-c5ccco5)cc34)cc2)cc1"
Result: -0.18

Ask: Determine from records and report inhibition for "Nc1nc(-c2cccc(Cl)c2)c(-c2ccc3ncccc3n2)s1"
Result: 3.94

Ask: Determine from records and report inhibition for "COc1ccc(-c2nn3ncccc3c2-c2ccnc(Nc3ccc4c(c3)OCCO4)n2)cc1"
Result: -0.41

Ask: Determine from records and report inhibition for "FC(F)(F)c1cccc(-c2nn3ncccc3c2-c2ccnc(Nc3ccc4c(c3)OCCO4)n2)c1"
Result: 0.6

====

TARGET_ENTITY: Discoidin domain-containing receptor 2 (Homo sapiens);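 note: reported figure is the mean inhibition of DDR2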
CONDITION_INFO: at 1 µM
Listed here: items and their measured inhibition.

>>> reading("CCNC(=O)O[C@H]1CN[C@H](C#Cc2cc3ncnc(Nc4ccc(OCc5cccc(F)c5)c(Cl)c4)c3s2)C1")
"1.39%"
>>> reading("COc1cc2ncn(-c3cc(OCc4ccccc4C(F)(F)F)c(C(=O)N(C)C)s3)c2cc1OC")
"-0.91%"
>>> reading("Clc1ccc(-c2nn3ncccc3c2-c2ccnc(Nc3ccccc3)n2)cc1")
"76.7%"

Ask: Determine from records and report inhibition for "COC(=O)Nc1nc2ccc(Oc3ccc(NC(=O)Nc4cccc(Cl)c4)cc3)cc2[nH]1"
Result: 85.2%

Ask: Determine from records and report inhibition for "COc1cccc(-c2c[nH]c3c(N/N=C/c4ccncc4)ncnc23)c1"
Result: 14.8%

====

Listed here: items and their measured inhibition.
TARGET_ENTITY: NT-3 growth factor receptor (Homo sapiens);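 note: mean TRKC inhibition from the GSK PKIS kinase inhibitor set, with assays run by Nanosyn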
CONDITION_INFO: at 1 µM
Field format: number, assumed %, no unit text.

>>> reading("Fc1ccc(-c2cc(-c3c[nH]nc3-c3ccccn3)ccn2)cc1")
3.45
>>> reading("CNC(=O)c1cc(-c2ccc(F)cc2)cc(-c2ccc(S(=O)(=O)N3CCCC3)cc2)c1N")
2.33
>>> reading("CC(C)(CO)CNC(=O)c1ccc2c(c1)/C(=N/Nc1ccc(S(N)(=O)=O)cc1)C(=O)N2")
41.5
>>> reading("Clc1ccc(-c2nn3ncccc3c2-c2ccnc(Nc3ccccc3)n2)cc1")
2.21

Moving on to another compound below.
Ask: Determine from records and report inhibition for "COC(=O)c1sc(-n2cnc3cc(OC)c(OC)cc32)cc1OCc1ccccc1C(F)(F)F"
Result: 16.9

====

TARGET_ENTITY: cGMP-dependent protein kinase 2 (Homo sapiens) (UniProt Q13237);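 note: reported figure is a mean inhibition value against PRKG2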
Sequence (Q13237 whole entry): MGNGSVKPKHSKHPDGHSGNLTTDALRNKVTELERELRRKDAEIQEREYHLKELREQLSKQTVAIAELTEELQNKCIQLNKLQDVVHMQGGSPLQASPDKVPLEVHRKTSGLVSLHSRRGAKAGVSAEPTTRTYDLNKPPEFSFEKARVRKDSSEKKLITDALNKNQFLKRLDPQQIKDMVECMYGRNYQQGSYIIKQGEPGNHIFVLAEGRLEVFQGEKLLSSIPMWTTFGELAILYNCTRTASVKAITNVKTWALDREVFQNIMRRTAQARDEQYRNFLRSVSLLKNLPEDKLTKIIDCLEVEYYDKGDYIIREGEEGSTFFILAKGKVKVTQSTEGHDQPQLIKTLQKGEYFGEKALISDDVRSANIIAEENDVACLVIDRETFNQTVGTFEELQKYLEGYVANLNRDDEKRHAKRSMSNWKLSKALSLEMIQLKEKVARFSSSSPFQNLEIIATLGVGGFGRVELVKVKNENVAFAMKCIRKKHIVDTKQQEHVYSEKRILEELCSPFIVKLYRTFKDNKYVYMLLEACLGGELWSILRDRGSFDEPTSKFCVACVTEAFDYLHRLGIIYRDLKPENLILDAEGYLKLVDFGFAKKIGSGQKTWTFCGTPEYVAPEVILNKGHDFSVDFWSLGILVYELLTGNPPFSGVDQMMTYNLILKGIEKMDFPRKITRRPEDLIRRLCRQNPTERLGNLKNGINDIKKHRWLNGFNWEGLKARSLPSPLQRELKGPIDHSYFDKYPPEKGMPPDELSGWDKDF
CONDITION_INFO: at 0.1 µM
Listed here: items and their measured inhibition.
Field format: number, assumed %, no unit text.

>>> reading("CC(=O)NCc1cccc(C#Cc2cncnc2Nc2ccc(OCc3cccc(F)c3)c(Cl)c2)c1")
1.31
>>> reading("COc1cc2ncn(-c3cc(OCc4ccccc4C(F)(F)F)c(C(=O)N(C)C)s3)c2cc1OC")
-0.41
>>> reading("COc1cc(N2CCN(C(C)C)CC2)ccc1Nc1nc(Nc2ccc(F)cc2C(N)=O)c2cc[nH]c2n1")
6
>>> reading("CCc1nn2ncccc2c1-c1ccnc(NC2CC2)n1")
0.96
>>> reading("CCn1c(-c2nonc2N)nc2cnc(Oc3cccc(NC(=O)c4ccc(N(C)C)cc4)c3)cc21")
21.7

Ask: Determine from records and report inhibition for "CS(=O)(=O)CCNCc1ccc(-c2ccc3ncnc(Nc4ccc(OCc5ccccc5)c(C(F)(F)F)c4)c3c2)o1"
Result: 1.82

Ask: Determine from records and report inhibition for "CCn1c(-c2nonc2N)nc2c(C#CC(C)(C)O)ncc(OC3CCNCC3)c21"
Result: 60.5

Ask: Determine from records and report inhibition for "COc1cc2c(cc1Nc1nc(Nc3ccsc3C(N)=O)c3cc[nH]c3n1)N(C(=O)CN(C)C)CCC2(C)C"
Result: 4.41

Ask: Determine from records and report inhibition for "O=C(Nc1n[nH]c2cc(-c3ccc(F)cc3)ccc12)C1CC1"
Result: 3.33

====

TARGET_ENTITY: Dual specificity protein kinase CLK2 (Homo sapiens);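 note: reported values are mean percent inhibition of CLK2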
CONDITION_INFO: at 1 µM
ASSAY_ENDPOINT: inhibition (%)
Field format: number, assumed %, no unit text.

Ask: Determine from records and report inhibition for "O=C(O[C@H]1CN[C@H](C#Cc2cc3ncnc(Nc4ccc(Cc5ccccc5)cc4)c3s2)C1)N1CCOCC1"
Result: -0.46

Ask: Determine from records and report inhibition for "COc1cc2c(cc1Nc1nc(Nc3ccsc3C(N)=O)c3cc[nH]c3n1)N(C(=O)CN(C)C)CCC2(C)C"
Result: 79.5

Ask: Determine from records and report inhibition for "c1ccc(-c2nc3n(c2-c2ccc4c(c2)OCO4)CCC3)nc1"
Result: -1.18

Ask: Determine from records and report inhibition for "CCN1CCC(CC(=O)Nc2n[nH]c3nnc(-c4cccc(F)c4F)cc23)CC1"
Result: 29.9

Ask: Determine from records and report inhibition for "[O-][S+]1CCN(Cc2ccc(-c3ccc4ncnc(Nc5ccc(OCc6cccc(F)c6)c(Cl)c5)c4c3)o2)CC1"
Result: -0.02
